assay: recombinant UMI read abundance after kanamycin selection (control-corrected) (log10(CPM+1)); higher = more efficient recombination; extreme values may be limits of the assay; sequences stand for … in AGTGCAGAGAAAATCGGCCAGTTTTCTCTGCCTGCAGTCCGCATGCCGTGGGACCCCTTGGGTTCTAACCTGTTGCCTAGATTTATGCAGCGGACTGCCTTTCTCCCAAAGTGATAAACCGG…AGGTTGGTTTCACT; site = the 11-nt donor
Hi there, I'd appreciate the recorded recombinant UMI read abundance (log10) for every entry that follows.
Answers are plain numbers.

macromolecule_sequence: AGCAATACATGGACCGGTTTTCCCGGTAATCCGTATTTGCA (site AGGAAGACTTG)
recombinant UMI read abundance (log10): 0
//
macromolecule_sequence: GTATGCGCATGGACCGGTTTTCCCGGTAATCCGTATTTGAA (site GTATGCGCTTT)
recombinant UMI read abundance (log10): 1.66
//
macromolecule_sequence: TAATGTGCATGGACCGGTTTTCCCGGTAATCCGTATTTGGG (site TAATGAGCTCC)
recombinant UMI read abundance (log10): 0.0156

List reported recombinant UMI read abundance (log10) for each of these sequences:
1. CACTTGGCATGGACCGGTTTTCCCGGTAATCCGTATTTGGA (site CACTCGGCTTC)
2. GCCACTGCATGGACCGGTTTTCCCGGTAATCCGTATTTGCC (site GCTACTGCTGG)

## Result
0.0123
0

###

assay: recombinant barcode read abundance after kanamycin selection (control-corrected) (log10(CPM+1)); higher = more efficient recombination; sequences stand for … in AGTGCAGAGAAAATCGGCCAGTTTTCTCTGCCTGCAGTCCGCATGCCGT…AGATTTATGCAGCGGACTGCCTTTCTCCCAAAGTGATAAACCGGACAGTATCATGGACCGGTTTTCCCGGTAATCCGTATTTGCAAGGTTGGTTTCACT; site = the 11-nt target
Rule: satisfied for recombinant barcode read abundance (log10) not less than 0.7, not satisfied for anything less.

macromolecule_sequence: CGGGCCTCTTGGGTTCTAACCTGTTGCTT (site CGGGCCTCTAA)
category: satisfied
//
macromolecule_sequence: AAAGTGTCTTGGGTTCTAACCTGTTGCCT (site AATGTGTCTAG)
category: not satisfied
//
macromolecule_sequence: GCAAGGTCTTGGGTTCTAACCTGTTGCAT (site CGTTCTCCTTA)
category: not satisfied

## Task Form field: recombinant barcode read abundance (log10) at least 0.7? Entry: CCTAATACTTGGGTTCTAACCTGTTGCGT (site CCTAATACTAC)
## Result satisfied

## Task Exam item: decide whether the reported recombinant barcode read abundance (log10) for GTAACTGCTTGGGTTCTAACCTGTTGCCT (site GTAAGTGCTAG) is at least 0.7.
## Result not satisfied

###

I'd be grateful if you could share measured recombinant UMI read abundance (log10) for these entries.
assay: recombinant UMI read abundance after kanamycin selection (control-corrected) (log10(CPM+1)); higher = more efficient recombination; extreme values may be limits of the assay; sequences stand for … in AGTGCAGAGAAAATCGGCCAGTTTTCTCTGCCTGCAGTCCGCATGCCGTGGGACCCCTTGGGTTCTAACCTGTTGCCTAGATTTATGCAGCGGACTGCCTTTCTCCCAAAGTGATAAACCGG…AGGTTGGTTTCACT; site = the 11-nt donor

Please supply recombinant UMI read abundance (log10) for each of the following items, keeping them in order.
1. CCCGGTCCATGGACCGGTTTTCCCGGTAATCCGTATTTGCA (site CCCGGTCCTTA)
2. ACGCGTTCATGGACCGGTTTTCCCGGTAATCCGTATTTGCG (site ACGCGTTCTCG)
3. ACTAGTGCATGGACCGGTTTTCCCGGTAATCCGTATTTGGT (site ATTAGTGCTAC)
4. CCTTATACATGGACCGGTTTTCCCGGTAATCCGTATTTGGG (site CCTTATACTCC)
5. CACTATGCATGGACCGGTTTTCCCGGTAATCCGTATTTGAT (site CACTATGCTAT)

## Result
1. 0.0178
2. 1.8
3. 1.01
4. 0.016
5. 1.93

Batch lookup, recombinant UMI read abundance (log10) per entry.
1. GCGCATGCATGGACCGGTTTTCCCGGTAATCCGTATTTGGT (site GAGCATGCTAC)
2. CGATGACCATGGACCGGTTTTCCCGGTAATCCGTATTTGGG (site CGAAGACCTCC)
3. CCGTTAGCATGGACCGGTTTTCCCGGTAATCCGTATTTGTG (site CCGTTCGCTCA)
4. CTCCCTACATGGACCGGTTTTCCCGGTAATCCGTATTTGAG (site GTCCCTACTCT)
5. ATAAGACCATGGACCGGTTTTCCCGGTAATCCGTATTTGAC (site ATAAGGCCTGT)
6. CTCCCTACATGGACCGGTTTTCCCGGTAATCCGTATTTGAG (site CTCACTACTCT)
7. GACAAACCATGGACCGGTTTTCCCGGTAATCCGTATTTGGG (site GACAAACCTGC)
8. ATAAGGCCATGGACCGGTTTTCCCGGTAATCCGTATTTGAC (site ATAAGGCCTGC)

## Result
[0.595, 0.00605, 0, 0.0115, 0, 0.0117, 0, 0.147]

I have 4 sequences here; please give me recombinant UMI read abundance (log10) for each one.
1. ACAGGGCCATGGACCGGTTTTCCCGGTAATCCGTATTTGCT (site ACAGGGCCTAG)
2. TCTATAACATGGACCGGTTTTCCCGGTAATCCGTATTTGCT (site TCTATAACTAG)
3. CTCACACCATGGACCGGTTTTCCCGGTAATCCGTATTTGTC (site CTCACACCTGA)
4. GGTCGAACATGGACCGGTTTTCCCGGTAATCCGTATTTGTA (site GGTCGAACTTA)

## Result
[1.1, 0, 0, 0.761]

# per-item lookup of recombinant UMI read abundance (log10); items listed below
1. GGCCACTCATGGACCGGTTTTCCCGGTAATCCGTATTTGTT (site GGCCACGCTAA)
2. CTGGGACCATGGACCGGTTTTCCCGGTAATCCGTATTTGGT (site CTGGGACCTAC)
3. AGCGAGCCATGGACCGGTTTTCCCGGTAATCCGTATTTGTA (site AGCGAGCCTTA)
4. ATGACTGCATGGACCGGTTTTCCCGGTAATCCGTATTTGTC (site ATGACTGCTGA)
5. GACCGCTCATGGACCGGTTTTCCCGGTAATCCGTATTTGGC (site GACCGCTCTGC)
6. CCCAATACATGGACCGGTTTTCCCGGTAATCCGTATTTGGC (site CCTAATACTGC)
7. CGAGCGACATGGACCGGTTTTCCCGGTAATCCGTATTTGTT (site CGAACGACTAA)
8. ATGGAGACATGGACCGGTTTTCCCGGTAATCCGTATTTGGT (site ATCGAGACTAC)

## Result
1: 0.00402; 2: 0.0117; 3: 0.53; 4: 1.47; 5: 2.43; 6: 0; 7: 0.607; 8: 0.157
